- SUBJECT OF TEST: Growth hormone secretagogue receptor type 1 (Homo sapiens, UniProt Q92847)
- Sequence (Q92847 whole entry): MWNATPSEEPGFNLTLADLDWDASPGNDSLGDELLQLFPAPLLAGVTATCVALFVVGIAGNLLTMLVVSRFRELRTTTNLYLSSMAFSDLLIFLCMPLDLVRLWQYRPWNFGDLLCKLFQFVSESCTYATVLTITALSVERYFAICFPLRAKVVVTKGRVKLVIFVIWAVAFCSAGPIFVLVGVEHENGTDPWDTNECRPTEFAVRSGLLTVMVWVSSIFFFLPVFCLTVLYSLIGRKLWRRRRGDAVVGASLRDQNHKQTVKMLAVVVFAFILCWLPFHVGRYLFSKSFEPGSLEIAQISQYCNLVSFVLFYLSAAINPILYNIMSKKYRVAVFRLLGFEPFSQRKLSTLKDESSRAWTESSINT
- PROTOCOL NOTES: Ability to inhibit ghrelin induced increase in intracellular [Ca2+] in CHO-K cells was determined by FLIPR assay
- Assay type: functional, cell-based
pIC50: −log10 of the molar value.
METRIC NAME: pIC50

>>> value_measured("CCN(CC)c1ccc(NC(=O)c2c(-c3c(Cl)cccc3Cl)noc2CCC2CCCO2)cc1 (configuration not stated)")
7.24
>>> value_measured("CCCc1onc(-c2c(Cl)cccc2Cl)c1C(=O)Nc1ccc(N(CC)CC)cc1")
6.31
>>> value_measured("CCN(CC)c1ccc(NC(=O)c2c(-c3c(Cl)cccc3Cl)noc2CN2CCCC2=O)cc1")
7.01
>>> value_measured("CCN(CC)c1ccc(NC(=O)c2c(-c3c(Cl)cccc3Cl)noc2CCC2OCCO2)cc1")
7.25
>>> value_measured("CCc1onc(-c2c(Cl)cccc2Cl)c1C(=O)Nc1ccc(N(CC)CC)cc1")
6.50

[A] CCN(CC)c1ccc(NC(=O)c2c(-c3c(Cl)cccc3Cl)noc2CCN2C(=O)CCC2(C)C)cc1
[B] CCN(CC)c1ccc(NC(=O)c2c(-c3c(Cl)cccc3Cl)noc2C)cc1
Which has the smaller recorded pIC50, A or B ? Give the label of your selection. B
(B: 6.74, A: 7.82)
